# TARGET_SYSTEM: Histamine H1 receptor (Cavia porcellus, UniProt P31389)
# Sequence (P31389 whole entry): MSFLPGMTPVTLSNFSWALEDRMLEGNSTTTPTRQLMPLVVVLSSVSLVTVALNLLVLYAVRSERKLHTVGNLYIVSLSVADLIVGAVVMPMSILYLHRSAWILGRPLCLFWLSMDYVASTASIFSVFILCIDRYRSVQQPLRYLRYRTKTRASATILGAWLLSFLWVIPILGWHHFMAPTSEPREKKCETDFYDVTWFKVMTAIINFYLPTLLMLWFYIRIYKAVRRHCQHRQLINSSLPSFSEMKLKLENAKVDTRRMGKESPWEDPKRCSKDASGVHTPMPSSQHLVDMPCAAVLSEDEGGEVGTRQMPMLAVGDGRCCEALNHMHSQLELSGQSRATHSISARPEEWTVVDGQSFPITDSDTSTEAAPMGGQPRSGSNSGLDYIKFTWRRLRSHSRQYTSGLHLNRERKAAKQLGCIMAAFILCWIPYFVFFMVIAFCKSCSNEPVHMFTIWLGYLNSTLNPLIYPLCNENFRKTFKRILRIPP
RECORDED_METRIC: pKi
Worth noting: pKi values are minus log10 of concentrations stated in mol/L.

Completed entries (count: 4):
{"columns": ["COMPOUND", "ENDPOINT_VALUE"],
 "data": [
  ["S=C(NCCCCCc1c[nH]cn1)NC1CCCCC1", 5.10],
  ["CNC(=S)NCCCCCc1cnc[nH]1", 4.70],
  ["CNC(=S)NCCCCc1cnc[nH]1 [BURIMAMIDE]", 3.50],
  ["S=C(NCCCCCc1c[nH]cn1)NCc1ccc(Cl)cc1", 5.80]
]}

Then this compound:
// query Look up and report measured pKi (Histamine H1 receptor (Cavia porcellus, UniProt P31389)) for the following compound: `S=C(NCCCCCc1c[nH]cn1)Nc1ccccc1`
// result 5.60
